# TESTED TARGET: hOX1R (Homo sapiens)
# TEST METHOD NOTES: FLIPR Ca2+ flux assay, hOX1R
# Type: cell-based
# MEASUREMENT SETUP: CHO cells; agonist 70 pM Ala-6,12 orexin-A; rat orexin-1 receptor; read-out: hOX1R FLIPR IC50
pIC50: −log10 of the molar value.
Decide using pIC50: a value greater than or equal to 6 is Met, a smaller one is Not met.

A selection of reference data follows.
INSERT INTO results (molecule, tested_target, discrete_label) VALUES
  ('C[C@@H]1CC[C@@H](c2nc(-c3ccccc3CO)co2)CN1C(=O)c1ccccc1-n1nccn1', 'hOX1R (Homo sapiens)', 'Met'),
  ('Cc1oc([C@@H]2CC[C@@H](C)N(C(=O)c3cscc3-c3ncccn3)C2)nc1C(C)(C)O', 'hOX1R (Homo sapiens)', 'Not met'),
  ('Cc1oc([C@@H]2CC[C@@H](C)N(C(=O)c3ccccc3-c3ncccn3)C2)nc1C(C)(C)O', 'hOX1R (Homo sapiens)', 'Not met'),
  ('C[C@@H]1CC[C@@H](c2nc(CF)c(-c3ccccc3)o2)CN1C(=O)c1ccccc1-n1nccn1', 'hOX1R (Homo sapiens)', 'Met');

## Input Please indicate if the recorded pIC50 for `Cc1oc([C@@H]2CC[C@@H](C)N(C(=O)c3cccnc3OCC(F)(F)F)C2)nc1C(C)(C)O` meets or exceeds 6.
## Output Not met

## Input Please indicate if the recorded pIC50 for CC(O)c1nc([C@@H]2CC[C@@H](C)N(C(=O)c3ccccc3-n3nccn3)C2)oc1-c1ccccc1 (single isomer, unassigned) [Example 65] meets or exceeds 6.
## Output Met

## Input Please indicate if the recorded pIC50 for `COC(C)(C)Cc1nc([C@@H]2CC[C@@H](C)N(C(=O)c3ccccc3-n3nccn3)C2)oc1-c1ccccc1` meets or exceeds 6.
## Output Met
